Experiment: chemical genetic growth profiling, strain panel (AID 1159580);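 further: tested at 20 µM; growth read once vehicle control cultures reached saturation at 30 °C; lower values mean less growth of the strain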
Conditions: S. cerevisiae deletion strains, growth OD, locus YHR013C, strain ard1, stronger effect = lower value
In all, about 5,500 compounds went through this assay and about 2,000 (36%) were called active. Another 18% or so got no clear call; they are omitted. The list shows a part of the results.
Binarize normalized growth at 0.9; below is MET, at or above is NOT MET.

{"compound": "O=C(NC(=O)c1c(F)cccc1F)Nc1ccc(Cl)cc1", "class_assignment": "NOT MET"}
{"compound": "N[C@@H](Cc1ccc(O)c(O)c1)C(=O)O", "class_assignment": "NOT MET"}
{"compound": "CC(=O)O[C@@H]1C[C@@]2(C)[C@H](c3ccoc3)C[C@H]3O[C@]32[C@]2(C)C(=O)C(O)=C3C(C)(C)C(=O)C=C[C@]3(C)C12 (stereo partly drawn)", "class_assignment": "MET"}
{"compound": "COc1cc(OC)c2c(=O)c(-c3ccccc3)c(C)oc2c1OC", "class_assignment": "NOT MET"}
{"compound": "C[C@H](N)[C@H](O)c1ccc(O)c(O)c1", "class_assignment": "NOT MET"}
{"compound": "CC(=O)NCCCCCC(=O)O", "class_assignment": "NOT MET"}
{"compound": "CC1(C)C(C(Cl)Cl)C2(Cl)C(Cl)C(Cl)C1(Cl)C2(Cl)Cl (stereo not drawn)", "class_assignment": "MET"}
{"compound": "Nc1ncnc2c1ncn2C1O[C@H](COP(=O)(O)O)[C@@H](O)[C@H]1O (stereo partly drawn)", "class_assignment": "NOT MET"}
{"compound": "COc1ccc(C(Cl)=C(c2ccc(OC)cc2)c2ccc(OC)cc2)cc1", "class_assignment": "NOT MET"}
{"compound": "NCC(O)c1ccc(O)cc1 (stereo not drawn)", "class_assignment": "NOT MET"}
{"compound": "COC(=O)C[C@H]1C(C)(C)C(=O)[C@@H]2CC3=C4CC(=O)O[C@@H](c5ccoc5)[C@]4(C)CCC3[C@@]1(C)C2=O (stereo partly drawn)", "class_assignment": "NOT MET"}
{"compound": "CC1(C)C(=O)C=C[C@@]2(C)C1=C(O)C(=O)[C@]1(C)C2CC[C@@]2(C)[C@H](c3ccoc3)C[C@H]3O[C@]321 (stereo partly drawn)", "class_assignment": "MET"}
{"compound": "COC(C)(C)CCC[C@H](C)C/C=C/C(C)=C/C(=O)OC(C)C", "class_assignment": "NOT MET"}
{"compound": "Oc1c(I)cc(I)c2cccnc12", "class_assignment": "MET"}
{"compound": "CN/C(=C\\[N+](=O)[O-])NCCSCc1ccc(CN(C)C)o1", "class_assignment": "NOT MET"}
{"compound": "CC(C)NCC(O)c1ccc(O)c(O)c1 (stereo not drawn)", "class_assignment": "NOT MET"}
{"compound": "O=C(O)CCCCC1CCSS1 (stereo not drawn)", "class_assignment": "NOT MET"}
{"compound": "O=c1[nH]c(=O)n(C2C[C@@H](O)[C@@H](CO)O2)cc1F (stereo partly drawn)", "class_assignment": "NOT MET"}
{"compound": "O=C(O[C@@H]1Cc2c(O)cc(O)cc2O[C@@H]1c1cc(O)c(O)c(O)c1-c1c([C@H]2Oc3cc(O)cc(O)c3C[C@H]2O)cc(O)c(O)c1O)c1cc(O)c(O)c(O)c1", "class_assignment": "NOT MET"}
{"compound": "CCCC1O[C@@H]2CC3C4CCC5=CC(=O)C=CC5(C)C4[C@@H](O)CC3(C)[C@]2(C(=O)CO)O1 (stereo partly drawn)", "class_assignment": "NOT MET"}
{"compound": "CN1C(CC(=O)c2ccccc2)CCCC1CC(O)c1ccccc1 (stereo not drawn)", "class_assignment": "NOT MET"}
{"compound": "CC(C)=CCC[C@](C)(O)C1CC=C(C)CC1 (stereo partly drawn)", "class_assignment": "NOT MET"}
{"compound": "CC(=O)/C(=C\\c1ccccc1)CC(=O)O", "class_assignment": "NOT MET"}
{"compound": "CC1(C)CCCC2(C)C3C1[C@@H](O)C2(C)C[C@H]3O (stereo partly drawn)", "class_assignment": "NOT MET"}
{"compound": "CC(=O)Nc1ccc(S(=O)(=O)c2ccc(NC(C)=O)cc2)cc1", "class_assignment": "NOT MET"}
{"compound": "CN[C@H](CC(=O)O)C(=O)O", "class_assignment": "NOT MET"}
{"compound": "CC(=O)O[C@@H]1CC2C(C)(C)C=CC(=O)[C@]2(C)C2CC[C@@]3(C)[C@H](c4ccoc4)OC(=O)C4OC43[C@@]21C (stereo partly drawn)", "class_assignment": "NOT MET"}
{"compound": "O=C1CCCC2C3CC(CN12)[C@@H]1CCCCN1C3 (stereo partly drawn)", "class_assignment": "NOT MET"}
{"compound": "O=C(OC1Cc2c(O)cc(O)cc2OC1c1cc(O)c(O)c(O)c1-c1c(C2Oc3cc(O)cc(O)c3CC2OC(=O)c2cc(O)c(O)c(O)c2)cc(O)c(O)c1O)c1cc(O)c(O)c(O)c1 (stereo not drawn)", "class_assignment": "MET"}
{"compound": "CCC(Cc1c(I)cc(I)c(N)c1I)C(=O)O (stereo not drawn)", "class_assignment": "MET"}
{"compound": "Cc1ccsc1/C=C/C1=NCCCN1C", "class_assignment": "NOT MET"}
{"compound": "CCN(CC)CCNC(=O)c1cc(S(C)(=O)=O)ccc1OC", "class_assignment": "NOT MET"}
{"compound": "Nc1ccc(S(=O)(=O)Nc2ccccn2)cc1", "class_assignment": "NOT MET"}
{"compound": "NC(=NCCC[C@H](N)C(=O)O)NC(CCC(=O)O)C(=O)O (stereo partly drawn)", "class_assignment": "NOT MET"}
{"compound": "Nc1ncnc2c1ncn2C1C[C@H](O)[C@@H](CO)O1 (stereo partly drawn)", "class_assignment": "NOT MET"}
{"compound": "CC(=O)Oc1ccc(Cl)c2cccnc12", "class_assignment": "MET"}
{"compound": "CC(=O)NCCCS(=O)(=O)O", "class_assignment": "NOT MET"}
{"compound": "CO[C@H]1/C=C/O[C@@]2(C)Oc3c(C)c(O)c4c(O)c(c(/C=N/N5CCN(C)CC5)c(O)c4c3C2=O)NC(=O)/C(C)=C\\C=C\\C(C)[C@H](O)[C@@H](C)[C@@H](O)[C@@H](C)[C@@H](OC(C)=O)[C@@H]1C (stereo partly drawn)", "class_assignment": "NOT MET"}
{"compound": "C1CNCCN1", "class_assignment": "NOT MET"}
{"compound": "NC[C@H](O)c1ccc(O)c(O)c1", "class_assignment": "NOT MET"}
{"compound": "CC(C)=CCC/C(C)=C/CC/C(C)=C/CC/C(C)=C/CC/C(C)=C/CC/C(C)=C/CC/C(C)=C/CC/C(C)=C/CC/C(C)=C/CO", "class_assignment": "NOT MET"}
{"compound": "CCCCC(CC)CN1CN(CC(CC)CCCC)CC(C)(N)C1 (stereo not drawn)", "class_assignment": "MET"}
{"compound": "O=C(O)/C=C/C=C/c1ccccc1", "class_assignment": "MET"}

Where do these numbers come from? They come from PubChem BioAssay AID1159580.
